- Measurement description: Chromaticity (platinum-cobalt colorimetry)
- Type: physicochemical
- Settings: aconitate/citrate products, Table 4; colour comparison at 25°C
Outcome label depends on Chromaticity relative to 60 Pt-Co: at/above gives label 1, below gives label 0.

{"Compound": "CCCCOC(=O)C=C(CC(=O)OCCCC)C(=O)OCCCC [Example 35, tributyl aconitate]", "Class name": "label 1"}
{"Compound": "CCCCOC(=O)C=C(CC(=O)OCCCC)C(=O)OCCCC [Example 26, tributyl aconitate]", "Class name": "label 1"}
{"Compound": "CCCCOC(=O)C=C(CC(=O)OCCCC)C(=O)OCCCC [Example 33, tributyl aconitate]", "Class name": "label 1"}
{"Compound": "CCCCOC(=O)C=C(CC(=O)OCCCC)C(=O)OCCCC [Example 30, tributyl aconitate]", "Class name": "label 1"}
{"Compound": "CCOC(=O)C=C(CC(=O)OCC)C(=O)OCC [Example 21, triethyl aconitate]", "Class name": "label 0"}
{"Compound": "CCCCOC(=O)C=C(CC(=O)OCCCC)C(=O)OCCCC [Example 34, tributyl aconitate]", "Class name": "label 0"}
{"Compound": "CCCCOC(=O)C=C(CC(=O)OCCCC)C(=O)OCCCC [Example 25, tributyl aconitate]", "Class name": "label 0"}
{"Compound": "CCCCC(CC)COC(=O)C=C(CC(=O)OCC(CC)CCCC)C(=O)OCC(CC)CCCC (stereo not shown) [Example 20, tri(2-ethylhexyl) aconitate]", "Class name": "label 0"}
{"Compound": "CCCCOC(=O)C=C(CC(=O)OCCCC)C(=O)OCCCC [Comparative Example 2, tributyl aconitate, reference compound]", "Class name": "label 1"}
{"Compound": "CCCCOC(=O)C=C(CC(=O)OCCCC)C(=O)OCCCC [Example 28, tributyl aconitate]", "Class name": "label 0"}
{"Compound": "CCCCOC(=O)C=C(CC(=O)OCCCC)C(=O)OCCCC [Comparative Example 1, tributyl aconitate, reference compound]", "Class name": "label 1"}
{"Compound": "CCCCOC(=O)C=C(CC(=O)OCCCC)C(=O)OCCCC [Example 19, tributyl aconitate]", "Class name": "label 0"}

---

# Tg per entry
- Measurement description: Glass transition temperature (dynamic mechanical analyzer)
- Type: physicochemical
- Settings: PVC composite with 30 parts plasticizer, Table 10
Structures can show the parent of a compound that is named as a salt.

{"Compound": "CCCCOC(=O)C=C(CC(=O)OCCCC)C(=O)OCCCC [Tributyl aconitate, tributyl aconitate]", "Tg / °C": 28.1}
{"Compound": "CCCCOC(=O)CC(O)(CC(=O)OCCCC)C(=O)OCCCC [Tributyl citrate, tributyl citrate]", "Tg / °C": 38.3}
{"Compound": "CCCCCCCCOC(=O)c1ccccc1C(=O)OCCCCCCCC [Dioctyl Phthalate, dioctyl phthalate]", "Tg / °C": 48.5}
{"Compound": "CC(C)CCCCCOC(=O)C=C(CC(=O)OCCCCCC(C)C)C(=O)OCCCCCC(C)C [Triisooctyl aconitate, triisooctyl aconitate]", "Tg / °C": 43.5}

---

- Measurement description: Hardness (Shore hardness tester, GB/T 531-2008)
- Assay type: physicochemical
- Settings: PVC plastic: 100 parts PVC resin, 35 parts plasticizer, 2 parts oxidized polyethylene wax, 5 parts octyltin maleate
# Hardness/Shore D per record follows
Readout type: Hardness/Shore D (Shore D)

{"Compound": "CCCCOC(=O)C=C(CC(=O)OCCCC)C(=O)OCCCC [Example 30, tributyl aconitate]", "Result": 43}
{"Compound": "CCCCOC(=O)C=C(CC(=O)OCCCC)C(=O)OCCCC [Example 26, tributyl aconitate]", "Result": 45}
{"Compound": "CCCCC(CC)COC(=O)C=C(CC(=O)OCC(CC)CCCC)C(=O)OCC(CC)CCCC (stereo not shown) [Example 20, tri(2-ethylhexyl) aconitate]", "Result": 54}
{"Compound": "CCCCOC(=O)C=C(CC(=O)OCCCC)C(=O)OCCCC [Example 36, tributyl aconitate]", "Result": 43}
